target: ERα (Homo sapiens, UniProt P03372); test: (ERE)3-luciferase reporter gene assay in T47D-KBluc cells; assay type: cell-based; design: Using a stably transfected breast cancer cell line that expresses endogenous ERα; endogenous in cells; host or cells: T47D-KBluc; conditions: T47D-KBluc cells, 20 pM E2, 24 h; read-out: IC50 for inhibition of E2 dependent ERα transactivation, (ERE)3-luciferase
Sequence (P03372 whole entry): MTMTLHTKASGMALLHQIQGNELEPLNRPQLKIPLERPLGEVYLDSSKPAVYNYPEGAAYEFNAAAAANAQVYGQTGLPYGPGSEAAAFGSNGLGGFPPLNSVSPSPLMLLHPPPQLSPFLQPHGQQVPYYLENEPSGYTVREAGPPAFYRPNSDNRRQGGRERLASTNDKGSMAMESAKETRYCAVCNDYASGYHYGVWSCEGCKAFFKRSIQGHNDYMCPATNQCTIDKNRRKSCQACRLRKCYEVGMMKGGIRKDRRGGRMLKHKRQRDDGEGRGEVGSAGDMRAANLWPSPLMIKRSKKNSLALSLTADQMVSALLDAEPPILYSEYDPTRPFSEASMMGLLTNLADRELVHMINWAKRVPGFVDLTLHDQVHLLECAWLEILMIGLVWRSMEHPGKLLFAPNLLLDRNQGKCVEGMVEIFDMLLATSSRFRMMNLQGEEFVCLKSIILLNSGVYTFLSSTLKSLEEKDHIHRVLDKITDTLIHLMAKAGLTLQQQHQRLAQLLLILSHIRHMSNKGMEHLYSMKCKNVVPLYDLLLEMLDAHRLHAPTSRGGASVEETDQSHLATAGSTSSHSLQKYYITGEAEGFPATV
Assignment: determine reported pIC50 for the given compounds.
Answers are plain numbers, as −log10 of the molar value.

Compound | Measurement
CN(C)CCCn1c2c3ccccc3ccc2c2oc(=O)c3ccccc3c21 [Compound 638432] | 6.10

Proceeding to the next compound to report its pIC50.
// sample CN1CCC(C#N)c2ccccc21 (centres unmarked) [Compound 1529] , its pIC50 was 4.66

Attribution: patent US8871751B2
